# Test system: Escherichia coli TOP10
# Assay Name: shrunken log2 fold change of peptide-encoding DNA abundance (4.5 h post-induction vs induction); higher = less antimicrobial activity (less host growth inhibition)
# Experimental Conditions: time post-induction: 4.5 h; library: site-saturation at positions 5, 18, 19, 20
Everything with shrunken log2 fold change lower than 0.1 is no; everything else, including exactly 0.1, is yes.

# bool: shrunken log2 fold change of `RRIRYRPPRLPRPRPRPLGRPRP` >= 0.1
no

# bool: shrunken log2 fold change of `RRIRNRPPRLPRPRPRPLYHPRP` >= 0.1
no

# bool: shrunken log2 fold change of `RRIRTRPPRLPRPRPRPKFVPRP` >= 0.1
yes

# bool: shrunken log2 fold change of `RRIRSRPPRLPRPRPRPQWHPRP` >= 0.1
no

# bool: shrunken log2 fold change of `RRIRQRPPRLPRPRPRPRHSPRP` >= 0.1
no

# bool: shrunken log2 fold change of `RRIRGRPPRLPRPRPRPCFIPRP` >= 0.1
no

# bool: shrunken log2 fold change of `RRIRDRPPRLPRPRPRPNVDPRP` >= 0.1
no

# bool: shrunken log2 fold change of `RRIRCRPPRLPRPRPRPEQRPRP` >= 0.1
yes

# bool: shrunken log2 fold change of `RRIRCRPPRLPRPRPRPISPPRP` >= 0.1
yes

# bool: shrunken log2 fold change of `RRIRGRPPRLPRPRPRPTVKPRP` >= 0.1
yes

# bool: shrunken log2 fold change of `RRIRVRPPRLPRPRPRPQQNPRP` >= 0.1
no

# bool: shrunken log2 fold change of `RRIRSRPPRLPRPRPRPGGRPRP` >= 0.1
yes

# bool: shrunken log2 fold change of `RRIRNRPPRLPRPRPRPNYGPRP` >= 0.1
no

# bool: shrunken log2 fold change of `RRIRDRPPRLPRPRPRPWCGPRP` >= 0.1
no

# bool: shrunken log2 fold change of `RRIRCRPPRLPRPRPRPIQGPRP` >= 0.1
no

# bool: shrunken log2 fold change of `RRIRMRPPRLPRPRPRPFIVPRP` >= 0.1
no

# bool: shrunken log2 fold change of `RRIRSRPPRLPRPRPRPEVIPRP` >= 0.1
yes

# bool: shrunken log2 fold change of `RRIRNRPPRLPRPRPRPCFEPRP` >= 0.1
no

# bool: shrunken log2 fold change of `RRIRERPPRLPRPRPRPRGRPRP` >= 0.1
yes

# bool: shrunken log2 fold change of `RRIRWRPPRLPRPRPRPTPPPRP` >= 0.1
yes

# bool: shrunken log2 fold change of `RRIRPRPPRLPRPRPRPGYKPRP` >= 0.1
no

# bool: shrunken log2 fold change of `RRIRSRPPRLPRPRPRPWGMPRP` >= 0.1
no

# bool: shrunken log2 fold change of `RRIRIRPPRLPRPRPRPRMHPRP` >= 0.1
no

# bool: shrunken log2 fold change of `RRIRYRPPRLPRPRPRPPDMPRP` >= 0.1
no

# bool: shrunken log2 fold change of `RRIRVRPPRLPRPRPRPRKYPRP` >= 0.1
no

# bool: shrunken log2 fold change of `RRIRIRPPRLPRPRPRPPVYPRP` >= 0.1
no

# bool: shrunken log2 fold change of `RRIRFRPPRLPRPRPRPHGDPRP` >= 0.1
no

# bool: shrunken log2 fold change of `RRIRGRPPRLPRPRPRPETFPRP` >= 0.1
yes

# bool: shrunken log2 fold change of `RRIRERPPRLPRPRPRPSMKPRP` >= 0.1
no

# bool: shrunken log2 fold change of `RRIRCRPPRLPRPRPRPDKHPRP` >= 0.1
no

# bool: shrunken log2 fold change of `RRIRDRPPRLPRPRPRPEQVPRP` >= 0.1
no

# bool: shrunken log2 fold change of `RRIRGRPPRLPRPRPRPTWIPRP` >= 0.1
yes

# bool: shrunken log2 fold change of `RRIRIRPPRLPRPRPRPRMCPRP` >= 0.1
yes

# bool: shrunken log2 fold change of `RRIRWRPPRLPRPRPRPYRCPRP` >= 0.1
no

# bool: shrunken log2 fold change of `RRIRQRPPRLPRPRPRPPNKPRP` >= 0.1
yes

# bool: shrunken log2 fold change of `RRIRPRPPRLPRPRPRPCCVPRP` >= 0.1
yes

# bool: shrunken log2 fold change of `RRIRLRPPRLPRPRPRPYPLPRP` >= 0.1
no

# bool: shrunken log2 fold change of `RRIRLRPPRLPRPRPRPFPDPRP` >= 0.1
no

# bool: shrunken log2 fold change of `RRIRCRPPRLPRPRPRPERTPRP` >= 0.1
yes

# bool: shrunken log2 fold change of `RRIRGRPPRLPRPRPRPESAPRP` >= 0.1
yes

# bool: shrunken log2 fold change of `RRIRERPPRLPRPRPRPRCPPRP` >= 0.1
no

# bool: shrunken log2 fold change of `RRIRARPPRLPRPRPRPCDLPRP` >= 0.1
yes

# bool: shrunken log2 fold change of `RRIRNRPPRLPRPRPRPYNVPRP` >= 0.1
no

# bool: shrunken log2 fold change of `RRIRSRPPRLPRPRPRPVPIPRP` >= 0.1
yes

# bool: shrunken log2 fold change of `RRIRARPPRLPRPRPRPYRFPRP` >= 0.1
no

# bool: shrunken log2 fold change of `RRIRQRPPRLPRPRPRPEWYPRP` >= 0.1
no

# bool: shrunken log2 fold change of `RRIRVRPPRLPRPRPRPRPHPRP` >= 0.1
yes

# bool: shrunken log2 fold change of `RRIRVRPPRLPRPRPRPNDMPRP` >= 0.1
no

# bool: shrunken log2 fold change of `RRIRKRPPRLPRPRPRPMSIPRP` >= 0.1
no

# bool: shrunken log2 fold change of `RRIRFRPPRLPRPRPRPNCPPRP` >= 0.1
no

# bool: shrunken log2 fold change of `RRIRYRPPRLPRPRPRPNGYPRP` >= 0.1
yes

# bool: shrunken log2 fold change of `RRIRTRPPRLPRPRPRPGCNPRP` >= 0.1
no

# bool: shrunken log2 fold change of `RRIRVRPPRLPRPRPRPPRYPRP` >= 0.1
yes

# bool: shrunken log2 fold change of `RRIRCRPPRLPRPRPRPVTRPRP` >= 0.1
yes

# bool: shrunken log2 fold change of `RRIRHRPPRLPRPRPRPWYHPRP` >= 0.1
no

---

# System: Escherichia coli TOP10;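 also: peptides expressed intracellularly from a pBAD plasmid library in pooled LB shake-flask culture, induced with 0.3% L-arabinose, DNA abundance read by NGS, three biological replicates, DESeq2 with apeglm shrinkage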
# Assay Name: shrunken log2 fold change of peptide-encoding DNA abundance (4.5 h post-induction vs induction); higher = less antimicrobial activity (less host growth inhibition)
# Experimental Conditions: time post-induction: 4.5 h; library: site-saturation at positions 5, 18, 19, 20
Endpoint: shrunken log2 fold change
Please state the value as a number alone, without comment.

Name the reported shrunken log2 fold change value associated with the sequence `RRIRYRPPRLPRPRPRPWYQPRP`
-3.18

Name the reported shrunken log2 fold change value associated with the sequence `RRIRERPPRLPRPRPRPFLQPRP`
-0.172

Name the reported shrunken log2 fold change value associated with the sequence `RRIRVRPPRLPRPRPRPSTYPRP`
-0.288

Name the reported shrunken log2 fold change value associated with the sequence `RRIRTRPPRLPRPRPRPEPKPRP`
0.376

Name the reported shrunken log2 fold change value associated with the sequence `RRIRRRPPRLPRPRPRPGPMPRP`
0.353

Name the reported shrunken log2 fold change value associated with the sequence `RRIRTRPPRLPRPRPRPIMPPRP`
-0.331

Name the reported shrunken log2 fold change value associated with the sequence `RRIRCRPPRLPRPRPRPMYFPRP`
-0.796

Name the reported shrunken log2 fold change value associated with the sequence `RRIRRRPPRLPRPRPRPYGQPRP`
0.501

Name the reported shrunken log2 fold change value associated with the sequence `RRIRCRPPRLPRPRPRPRDIPRP`
-0.132

Name the reported shrunken log2 fold change value associated with the sequence `RRIRSRPPRLPRPRPRPGFSPRP`
-0.0153

Name the reported shrunken log2 fold change value associated with the sequence `RRIRGRPPRLPRPRPRPHAQPRP`
0.868

Name the reported shrunken log2 fold change value associated with the sequence `RRIRERPPRLPRPRPRPKKKPRP`
-0.0784

Name the reported shrunken log2 fold change value associated with the sequence `RRIRMRPPRLPRPRPRPNKVPRP`
0.0418

Name the reported shrunken log2 fold change value associated with the sequence `RRIRTRPPRLPRPRPRPSRQPRP`
0.15

Name the reported shrunken log2 fold change value associated with the sequence `RRIRVRPPRLPRPRPRPVGYPRP`
-0.0725

Name the reported shrunken log2 fold change value associated with the sequence `RRIRERPPRLPRPRPRPRGCPRP`
0.286

Name the reported shrunken log2 fold change value associated with the sequence `RRIRARPPRLPRPRPRPWHVPRP`
-0.0219

Name the reported shrunken log2 fold change value associated with the sequence `RRIRGRPPRLPRPRPRPTRSPRP`
1.18

Name the reported shrunken log2 fold change value associated with the sequence `RRIRQRPPRLPRPRPRPNIPPRP`
-0.262

Name the reported shrunken log2 fold change value associated with the sequence `RRIRGRPPRLPRPRPRPKNEPRP`
0.713

Name the reported shrunken log2 fold change value associated with the sequence `RRIRSRPPRLPRPRPRPQCAPRP`
0.233

Name the reported shrunken log2 fold change value associated with the sequence `RRIRFRPPRLPRPRPRPMVFPRP`
-0.0469

Name the reported shrunken log2 fold change value associated with the sequence `RRIRMRPPRLPRPRPRPFNAPRP`
0.00535

Name the reported shrunken log2 fold change value associated with the sequence `RRIRGRPPRLPRPRPRPLLNPRP`
0.76

Name the reported shrunken log2 fold change value associated with the sequence `RRIRRRPPRLPRPRPRPCYKPRP`
-0.202

Name the reported shrunken log2 fold change value associated with the sequence `RRIRPRPPRLPRPRPRPQSNPRP`
-0.285

Name the reported shrunken log2 fold change value associated with the sequence `RRIRGRPPRLPRPRPRPTDGPRP`
0.361

Name the reported shrunken log2 fold change value associated with the sequence `RRIRMRPPRLPRPRPRPCTGPRP`
-0.0444
